Documented ILS across a set of compounds
# System: Mus musculus
# Experimental Details: In vivo percent increase in lifespan of drug-treated, (P388 cells)tumor bearing animals was determined
# Format: functional
Reply with just the number (in %).

[in] Give ILS for CN(C)CCNC(=O)c1cccc2c(N)c3cccc([N+](=O)[O-])c3nc12 tested on Mus musculus.
[out] 39

[in] Give ILS for CN(C)CCNC(=O)c1cccc2c(N)c3cccc(F)c3nc12 tested on Mus musculus.
[out] 90

[in] Give ILS for CN(C)CCNC(=O)c1cccc2c(N)c3cccc(-c4ccccc4)c3nc12 tested on Mus musculus.
[out] 54

---

# System: Mus musculus
# Experimental Details: In vivo optimal dose was determined against P388 cells after (ip) administration
# Assay type: functional
Quantity Measured: OD (mg/kg/day)
Reply with just the number (in mg/kg/day).

[in] Output OD of CN(C)CCNC(=O)c1cccc2c(N)c3cccc(S(C)(=O)=O)c3nc12
[out] 30

[in] Output OD of CN(C)CCNC(=O)c1cccc2c(N)c3cccc(C#N)c3nc12
[out] 20

[in] Output OD of CN(C)CCNC(=O)c1cccc2c(N)c3cccc(-c4ccc([N+](=O)[O-])cc4)c3nc12
[out] 5.9

---

# Experimental Details: Lipophilicity is expressed in Rm
# Assay type: physicochemical
# Run Parameters: chromatographic, AMSA standard
Documented Rm across a set of molecules
Give only the figure.

Worked examples follow.
[in] Output Rm of Cc1cccc2c(N)c3cccc(C(=O)NCCN(C)C)c3nc12
[out] -1.02

[in] Output Rm of CN(C)CCNC(=O)c1cccc2c(N)c3cc(S(C)(=O)=O)ccc3nc12
[out] -1.24

[in] Output Rm of CN(C)CCNC(=O)c1cccc2c(N)c3cccc(F)c3nc12
[out] -1.11

[in] Output Rm of CN(C)CCNC(=O)c1cccc2c(N)c3cc(-c4ccccc4)ccc3nc12
[out] -0.61

[in] Output Rm of CCCOc1cccc2c(N)c3cccc(C(=O)NCCN(C)C)c3nc12
[out] -0.85

Consider the additional molecule presented here.
[in] Output Rm of CN(C)CCNC(=O)c1cccc2c(N)c3cc(Cl)ccc3nc12
[out] -0.89

---

# System: Mus musculus
# Experimental Details: In vivo optimal dose was determined against P388 cells after (ip) administration
# Assay type: functional
Quantity Measured: OD (mg/kg/day)
Reply with just the number (in mg/kg/day).

[in] Output OD of CN(C)CCNC(=O)c1cccc2c(N)c3cccc([N+](=O)[O-])c3nc12
[out] 0.8

[in] Output OD of CN(C)CCNC(=O)c1cccc2c(N)c3cccc(Br)c3nc12
[out] 3.9

[in] Output OD of CN(C)CCNC(=O)c1cccc2c(N)c3cccc(-c4ccc(N)cc4)c3nc12
[out] 5.9

[in] Output OD of CN(C)CCNC(=O)c1cccc2c(N)c3cccc(F)c3nc12
[out] 3.9

[in] Output OD of CN(C)CCNC(=O)c1cccc2c(N)c3cccc(C(F)(F)F)c3nc12
[out] 13.3

---

# Test system: Mus musculus
# Experimental Details: In vivo percent increase in lifespan of drug-treated, (P388 cells)tumor bearing animals was determined
# Format: functional
Quantity Measured: ILS

Worked examples follow.
[in] Output ILS of CN(C)CCNC(=O)c1cccc2c(N)c3cccc(Br)c3nc12
[out] 82%

[in] Output ILS of CN(C)CCNC(=O)c1cccc2c(N)c3cccc(N)c3nc12
[out] 32%

[in] Output ILS of CN(C)CCNC(=O)c1cccc2c(N)c3cccc(C(F)(F)F)c3nc12
[out] 115%

[in] Output ILS of CN(C)CCNC(=O)c1cccc2c(N)c3cccc(S(C)(=O)=O)c3nc12
[out] 138%

Further cases:
[in] Output ILS of CN(C)CCNC(=O)c1cccc2c(N)c3cc(F)ccc3nc12
[out] 37%

---

# Experimental Details: pKa values were determined spectrophotometrically in aqueous solution.
# Format: physicochemical
Quantity Measured: pKa
Give only the figure.

[in] Output pKa of CN(C)CCNC(=O)c1cccc2c(N)c3cc(S(C)(=O)=O)ccc3nc12
[out] 6.93

[in] Output pKa of CN(C)CCNC(=O)c1cccc2c(N)c3cccc(Cl)c3nc12
[out] 6.87

Consider the additional compound presented here.
[in] Output pKa of CN(C)CCNC(=O)c1cccc2c(N)c3cccc(F)c3nc12
[out] 7.11

Sourced from ChEMBL document CHEMBL1123715
